Target: TYK2 (Homo sapiens (Human))
Sequence (P29597 871-1187): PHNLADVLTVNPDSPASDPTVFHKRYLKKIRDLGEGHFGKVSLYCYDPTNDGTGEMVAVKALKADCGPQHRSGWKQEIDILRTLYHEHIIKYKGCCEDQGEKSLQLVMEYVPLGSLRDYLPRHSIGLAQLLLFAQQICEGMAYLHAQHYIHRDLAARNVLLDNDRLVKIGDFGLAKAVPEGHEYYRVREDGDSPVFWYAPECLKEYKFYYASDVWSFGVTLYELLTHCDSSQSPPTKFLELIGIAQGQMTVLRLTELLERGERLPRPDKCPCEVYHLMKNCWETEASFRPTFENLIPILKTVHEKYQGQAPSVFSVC
Assay: JAK kinase assay (HTRF), TYK2
Conditions: catalytic domain, ATP at Km (13 μM)
A collection of compounds and their measured EC50

Worked examples, 5 compounds total:
COc1cc(CNC(=O)[C@H]2CCN(c3ncnc4[nH]ccc34)CC23CC3)ccc1C#N    118 nM
O=C(NCC1(CO)CCCC1)C1CCN(c2ncnc3[nH]ccc23)CC12CC2 (stereo not shown)    142 nM
C[C@H](NC(=O)[C@H]1CCN(c2ncnc3[nH]ccc23)CC12CC2)c1ccc(C#N)cn1    128 nM
O=C(NCC1(O)CCC1)[C@H]1CCN(c2ncnc3[nH]ccc23)CC12CC2    78.1 nM
O=C(NCc1ccc(F)cc1)C1CCN(c2ncnc3[nH]ccc23)CC12CC2 (stereo not shown)    106 nM

Query :: Data request, read-out EC50, for N#Cc1ccc(CNC(=O)[C@H]2CCN(c3ncnc4[nH]ccc34)CC23CC3)c(F)c1
Result :: 63.7 nM

Query :: Data request, read-out EC50, for Cc1ccc([C@H](O)CNC(=O)[C@H]2CCN(c3ncnc4[nH]ccc34)CC23CC3)cc1
Result :: 90.9 nM

----------
Molecular target: JAK2 (Homo sapiens (Human), UniProt O60674)
Sequence (O60674 849-1124): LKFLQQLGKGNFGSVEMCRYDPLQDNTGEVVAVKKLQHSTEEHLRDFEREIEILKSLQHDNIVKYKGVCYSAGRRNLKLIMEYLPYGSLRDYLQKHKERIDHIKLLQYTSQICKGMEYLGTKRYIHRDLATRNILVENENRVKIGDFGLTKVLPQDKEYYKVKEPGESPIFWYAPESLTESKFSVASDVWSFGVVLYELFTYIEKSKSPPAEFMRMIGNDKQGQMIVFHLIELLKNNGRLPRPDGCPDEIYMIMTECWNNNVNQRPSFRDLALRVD
Assay: JAK kinase assay (HTRF), JAK2
Conditions: catalytic domain, ATP at Km (4 μM)
A collection of compounds and their measured pEC50
Scale: negative log10 of molar concentration, which is what pEC50 denotes.

O=C(NCC1CC(F)(F)C1)[C@H]1CCN(c2ncnc3[nH]ccc23)CC12CC2    8.15
Cc1cc([C@H](O)[C@H](C)NC(=O)[C@H]2CCN(c3ncnc4[nH]ccc34)CC23CC3)ncc1F    7.79
CC(NC(=O)C1CCN(c2ncnc3[nH]ccc23)CC12CC2)c1ccc(F)cc1 (stereo not shown)    8.14
C[C@H](NC(=O)C1CCN(c2ncnc3[nH]ccc23)CC12CC2)c1ccccc1 (stereo partly shown)    7.95
O=C(NCc1ccc(F)cc1)C1CCN(c2ncnc3[nH]ccc23)CC12CC2 (stereo not shown)    8.05
O=C(N[C@@H](CO)[C@@H](O)c1ccc(F)cn1)[C@H]1CCN(c2ncnc3[nH]ccc23)CC12CC2    7.95

Could you now look at the following compound, please?
Query :: Data request, read-out pEC50, for O=C(NCC1CCCC1)C1CCN(c2ncnc3[nH]ccc23)CC12CC2 (stereo not shown)
Result :: 7.94

----------
Molecular target: UniProtKB O60674
Test: JAK kinase assay (HTRF), JAK2
Conditions: catalytic domain, ATP at Km (4 μM)
pEC50: −log10 of the molar value.
Label Condition met when pEC50 is at or above 8; anything below gets Condition not met.

See these solved cases before continuing.
O=C(N[C@@H](CO)[C@@H](O)c1ccc(F)cc1)[C@H]1CCN(c2ncnc3[nH]ccc23)CC12CC2    Condition met
C[C@@H](NC(=O)C1CCN(c2ncnc3[nH]ccc23)CC12CC2)c1cccc(C#N)c1 (some centres unmarked)    Condition not met
O=C(NCC1(CO)CC(F)(F)C1)[C@H](O)CNC(=O)[C@H]1CCN(c2ncnc3[nH]ccc23)CC12CC2    Condition not met

Could you now look at the following molecule, please?
Query :: In plain terms: is recorded pEC50 at least 8 for C[C@H](NC(=O)[C@H]1CCN(c2ncnc3[nH]ccc23)CC12CC2)c1ccc(C#N)c(F)c1 ?
Result :: Condition met

----------
Molecular target: JAK3 (Homo sapiens (Human), UniProt P52333)
Sequence (P52333 822-1111): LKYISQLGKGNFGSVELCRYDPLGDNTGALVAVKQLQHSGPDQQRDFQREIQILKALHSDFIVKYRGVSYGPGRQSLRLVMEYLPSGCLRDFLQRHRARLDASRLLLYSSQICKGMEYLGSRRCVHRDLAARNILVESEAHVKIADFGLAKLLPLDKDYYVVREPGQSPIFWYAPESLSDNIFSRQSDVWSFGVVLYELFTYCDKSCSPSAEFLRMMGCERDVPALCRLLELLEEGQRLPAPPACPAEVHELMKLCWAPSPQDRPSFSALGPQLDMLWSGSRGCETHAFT
Assay: JAK kinase assay (HTRF), JAK3
Details: catalytic domain, ATP at Km (2 μM)
The threshold is 50 nM. Values of EC50 beneath it are tagged 1 (yes); values meeting or exceeding it are tagged 0 (no).

See these solved cases before continuing.
N#Cc1ccc([C@@H](CO)NC(=O)[C@H]2CCN(c3ncnc4[nH]ccc34)CC23CC3)nc1    0 (no)
Cc1cc([C@@H](O)CNC(=O)[C@H]2CCN(c3ncnc4[nH]ccc34)CC23CC3)ncc1F (single isomer, unassigned)    0 (no)
N#Cc1ccc(CNC(=O)C2CCN(c3ncnc4[nH]ccc34)CC23CC3)cc1 (stereo not drawn)    1 (yes)
O=C(NC[C@H](O)C1CCCC1)[C@H]1CCN(c2ncnc3[nH]ccc23)CC12CC2    1 (yes)
CCc1cc(C#N)ccc1[C@H](CO)NC(=O)[C@H]1CCN(c2ncnc3[nH]ccc23)CC12CC2    0 (no)

Could you now look at the following compound, please?
Query :: Hello, I'm reviewing records and need to know if EC50 of O=C(NCC1(CO)CC(F)(F)C1)[C@H](O)CNC(=O)[C@H]1CCN(c2ncnc3[nH]ccc23)CC12CC2 is below 50 nM. Could you check?
Result :: 1 (yes)

----------
Target: JAK1 (Homo sapiens (Human))
Sequence (P23458 850-1154): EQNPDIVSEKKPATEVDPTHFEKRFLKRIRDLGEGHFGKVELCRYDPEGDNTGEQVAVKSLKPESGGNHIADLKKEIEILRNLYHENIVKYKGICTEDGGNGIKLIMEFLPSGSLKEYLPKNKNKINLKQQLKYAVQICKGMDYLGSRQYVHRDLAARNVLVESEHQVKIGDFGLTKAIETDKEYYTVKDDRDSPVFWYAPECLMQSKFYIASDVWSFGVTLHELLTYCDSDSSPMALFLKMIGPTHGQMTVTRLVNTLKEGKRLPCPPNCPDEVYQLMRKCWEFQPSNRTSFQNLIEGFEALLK
Assay: JAK kinase assay (HTRF), JAK1
Settings: catalytic domain, ATP at Km (7 μM)
The following ranges of EC50 define the classes used here: low range: < 1 nM; mid range: ≥ 1 nM and < 8 nM; high range: ≥ 8 nM

See these solved cases before continuing.
O=C(NC[C@H](O)C1CCC1)[C@H]1CCN(c2ncnc3[nH]ccc23)CC12CC2    mid range
O=C(NCC1CC(F)(F)C1)C1CCN(c2ncnc3[nH]ccc23)CC12CC2 (centres unmarked)    mid range
O=C(NC[C@@H](O)C1CCCCC1)[C@H]1CCN(c2ncnc3[nH]ccc23)CC12CC2    low range
Cc1cc(C#N)ccc1[C@H](CO)NC(=O)[C@H]1CCN(c2ncnc3[nH]ccc23)CC12CC2    mid range
O=C(OCc1ccccc1)[C@H](CO)NC(=O)[C@H]1CCN(c2ncnc3[nH]ccc23)CC12CC2    high range
O=C(NCC(O)c1ccc(F)cn1)[C@H]1CCN(c2ncnc3[nH]ccc23)CC12CC2 (some centres unmarked)    mid range
N#Cc1cccc([C@H](O)CNC(=O)[C@H]2CCN(c3ncnc4[nH]ccc34)CC23CC3)c1    high range
O=C(OCC1(CO)CS(=O)(=O)C1)[C@H]1CCN(c2ncnc3[nH]ccc23)CC12CC2    low range

Query :: Kindly state the category for this compound: C[C@@H](NC(=O)[C@H]1CCN(c2ncnc3[nH]ccc23)CC12CC2)[C@@H](O)c1ccc(C#N)cc1
Result :: high range

----------
Molecular target: UniProt P23458
Assay: JAK kinase assay (HTRF), JAK1
Settings: catalytic domain, ATP at Km (7 μM)
reported.endpoint: EC50 (nM)
Reply with just the number (in nM).

CC(NC(=O)C1CCN(c2ncnc3[nH]ccc23)CC12CC2)c1ccc(F)cc1 (stereo not drawn)    4.3

Query :: Data request, read-out EC50, for O=C(N[C@@H](CO)c1ccc(F)cc1CO)[C@H]1CCN(c2ncnc3[nH]ccc23)CC12CC2
Result :: 9.1

Query :: Data request, read-out EC50, for O=C(N[C@@H](CO)C1CCC1)[C@H]1CCN(c2ncnc3[nH]ccc23)CC12CC2
Result :: 70.6

----------
Assay: in vitro metabolic stability in human liver microsomes
Assay type: in vitro ADME
Conditions: human, liver microsomes, 0.5 μM compound, 0.5 mg/mL microsomes, NADPH, 40 min, 37° C.; read-out: Human liver microsome Clapp (apparent intrinsic clearance)
reported.endpoint: CLint scaled at 0.5 μM

Query :: Data request, read-out CLint scaled at 0.5 μM, for O=C(N[C@@H](CO)[C@@H](O)c1ccc(F)cc1)[C@H]1CCN(c2ncnc3[nH]ccc23)CC12CC2
Result :: > 200 mL/min/kg

----------
A collection of compounds and their measured pEC50
Biological target: JAK2 (Homo sapiens (Human))
Assay: JAK kinase assay (HTRF), JAK2
Details: catalytic domain, ATP at Km (4 μM)
Protocol: Human baculovirus-expressed JAK1, 2, 3 and TYK2 were purchased from Carna Biosciences, Inc. All four purified enzymes contain only the catalytic domain. […] Inhibition of phosphorylation of a synthetic peptide was measured in an HTRF-based assay using the TK substrate-Biotin from the Cisbio HTRFKinEASE TK kit. […] The HTRF signal is read using an Envision plate reader.
Scale: negative log10 of molar concentration, which is what pEC50 denotes.

Worked examples, 6 compounds total:
Cc1cc(C#N)ccc1[C@H](CO)NC(=O)[C@H]1CCN(c2ncnc3[nH]ccc23)CC12CC2 [Example 37]    7.99
O=C(OCC1CC(F)(F)C1)[C@@H]1CCN(c2ncnc3[nH]ccc23)CC12CC2 [Example 155]    7.24
O=C(NC[C@H](O)C1CCCC1)[C@H]1CCN(c2ncnc3[nH]ccc23)CC12CC2 [Example 11]    8.68
C[C@@H](NC(=O)[C@H]1CCN(c2ncnc3[nH]ccc23)CC12CC2)[C@@H](O)c1ccc(C#N)cc1 [Example 146]    6.73
O=C(NCC(O)c1ccc(F)cn1)[C@H]1CCN(c2ncnc3[nH]ccc23)CC12CC2 (stereo partly shown) [Example 38]    8.05
O=C(NCc1ccncc1)C1CCN(c2ncnc3[nH]ccc23)CC12CC2 (stereo not shown) [Example 85]    7.54

Could you now look at the following compound, please?
Query :: Data request, read-out pEC50, for Cc1cc([C@H](O)CNC(=O)[C@H]2CCN(c3ncnc4[nH]ccc34)CC23CC3)ncc1F [Example 44]
Result :: 7.80
